- target entity: gp120 of viral strain SF162 (HIV, strain SF162, UniProt P19550 32-502)
- assay method text: cell-based or functional assay
*1 amine or outer side, *2 acyl side, *3 side chain or, on linkers, in order; H or OH if unused. [ ]: non-standard residue; d: D form. U1 = 4-cyclohexylmethoxy-L-phenylalanine, O=C([C@H](Cc1ccc(OCC2CCCCC2)cc1)N[*:1])[*:2]; Tpa = thiopropionic acid
readout name: EC50 (antiviral activity, TZM-bl cells, luciferase) (pM)

| binder | unit abbreviation | numeric result |
| --- | --- | --- |
| Tpa-NLHKCQLRCSSLGLLGRCA[dP]T[U1]CACV-NH2 (disulfide (positions not given here)) [mCD4.2] | pM | 1240 |
| Tpa-NLHKCQLRCRSLGLLGRCA[dP]T[U1]CACV-NH2 (disulfide (positions not given here)) [mCD4.3] | pM | 660 |
| mCD4.2-PS1 (not fully specified; N-terminal gamma-aminobutyric acid (gammaAbu) acylated with 3-thiopropionyl (from SATP); all six Tyr are sulfotyrosine (YSO3); N-terminal Tpa; D-proline at position 21; U1 (4-cyclohexylmethoxy-L-phenylalanine) at position 23; C-terminal amide; Lys5 N-epsilon carries the PEO2-maleimide linker bound to the thiol of the PS1 chain) peptide 1: NLHKCQLRCSSLGLLGRCAPTFCACV peptide 2: SYDYSYDYSYDYS | pM | 10 |
